Measured log10 IC50 accompanies every entry in the list below.
- study-target: human TLR8 (Homo sapiens, UniProt Q9NR97)
- Construct: host or cells: HEK-Blue cells
- Sequence (Q9NR97 27-1041): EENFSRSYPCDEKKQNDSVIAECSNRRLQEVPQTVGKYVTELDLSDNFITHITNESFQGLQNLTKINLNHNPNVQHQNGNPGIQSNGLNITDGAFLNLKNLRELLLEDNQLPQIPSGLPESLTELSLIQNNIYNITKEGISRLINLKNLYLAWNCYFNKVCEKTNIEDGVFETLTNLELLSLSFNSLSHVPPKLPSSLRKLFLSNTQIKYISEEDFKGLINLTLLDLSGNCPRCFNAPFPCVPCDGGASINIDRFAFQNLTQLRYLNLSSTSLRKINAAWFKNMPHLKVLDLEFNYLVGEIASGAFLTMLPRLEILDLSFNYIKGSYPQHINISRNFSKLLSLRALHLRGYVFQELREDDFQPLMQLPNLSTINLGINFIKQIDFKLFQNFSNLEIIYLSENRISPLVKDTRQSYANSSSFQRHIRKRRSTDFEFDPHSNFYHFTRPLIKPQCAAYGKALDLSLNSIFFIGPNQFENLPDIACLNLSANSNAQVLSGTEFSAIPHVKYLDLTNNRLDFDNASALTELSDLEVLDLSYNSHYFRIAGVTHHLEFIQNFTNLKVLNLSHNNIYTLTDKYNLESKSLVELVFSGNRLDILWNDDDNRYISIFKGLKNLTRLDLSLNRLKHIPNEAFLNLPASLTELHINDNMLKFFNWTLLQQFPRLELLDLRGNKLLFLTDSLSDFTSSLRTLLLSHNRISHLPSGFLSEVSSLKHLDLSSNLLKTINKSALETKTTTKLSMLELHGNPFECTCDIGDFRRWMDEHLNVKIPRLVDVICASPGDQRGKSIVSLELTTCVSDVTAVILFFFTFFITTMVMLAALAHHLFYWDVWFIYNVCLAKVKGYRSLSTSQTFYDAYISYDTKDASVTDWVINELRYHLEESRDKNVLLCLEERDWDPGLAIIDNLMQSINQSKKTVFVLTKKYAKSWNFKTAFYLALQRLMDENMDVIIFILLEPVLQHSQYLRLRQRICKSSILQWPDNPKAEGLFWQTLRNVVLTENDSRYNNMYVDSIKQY
- assay-notes: TLR8 inhibition reporter assay (HEK-Blue cells, SEAP reporter, R848 stimulation)
- Type: cell-based
- condition-parameters: HEK-Blue cells overexpressing human TLR8, SEAP reporter, R848 15.9 μM; read-out: TLR8 IC50
Hey, these are logged values: log10 of IC50, nM being the unit before logging.

CC(C)c1c(-c2cn(C)c3ncccc23)[nH]c2sc(C3CCC(NC4COC4)CC3)nc12 (single isomer, unassigned) [Example 179] = 1.13
CCN(C)C1CCC(c2nc3c(C(C)C)c(-c4cn(C)c5ncccc45)[nH]c3s2)CC1 (single isomer, unassigned) [Example 174] = 0.50
Cc1c(-c2[nH]c3sc(N4CCN(CC(=O)N(C)C)CC4)nc3c2C(C)C)cn2ncnc2c1C [Example 283] = 0.23
COc1cc(-c2[nH]c3sc(C4CCC(N5CC[C@@H](NC(C)=O)C5)CC4)nc3c2C(C)C)cn2ncnc12 (single isomer, unassigned) [Example 101] = 1.36
COc1cc(-c2[nH]c3sc(C4CCC(NC5(C)COC5)CC4)nc3c2C(C)C)cn2ncnc12 (single isomer, unassigned) [Example 70] = 0.16

// fetch log10 IC50 given entry COc1cc(-c2[nH]c3sc(C4CCN(CCS(C)(=O)=O)CC4)nc3c2C(C)C)cn2ncnc12 [Example 16] 0.44

Data provenance is patent US20230139171A1.
